# subject.of.test: Influenza split vaccine A/New Caledonia/20/99 (H1N1)
Entries annotated with measured Coupling Ratio (%)
Answer format: numeric, % implied, no suffix.

binder | measurement.units | result.number
KLLLLKLLLLKLLLLKLLLL [Synthetic AD vehicle SSF-45] | % | 64.8
FGIPSSPVHLKRLLILKLLLLKILLLKLGALLIGL [Synthetic AD vehicle SSF-48] | % | 66.3
GIPFFPVHLKRLKLLLLLLLLILLLILGALLIGL [Synthetic AD vehicle SSF-47] | % | 86.9

Just so you know, measured Coupling Ratio (%) for PVHLKRLLLLLLLLLLLLLLLL [Synthetic AD vehicle SSF-44] came out at 72.8

binder IPCCPVHLKRLKLLLLLLLLILLLILGALLMGL [Synthetic AD vehicle SSF-46] , Coupling Ratio (%) observed: 76.2
